Please go through the items and note down their log10 of IC50.
Molecular target: UniProt:Q02156
Sequence (Q02156 1-737): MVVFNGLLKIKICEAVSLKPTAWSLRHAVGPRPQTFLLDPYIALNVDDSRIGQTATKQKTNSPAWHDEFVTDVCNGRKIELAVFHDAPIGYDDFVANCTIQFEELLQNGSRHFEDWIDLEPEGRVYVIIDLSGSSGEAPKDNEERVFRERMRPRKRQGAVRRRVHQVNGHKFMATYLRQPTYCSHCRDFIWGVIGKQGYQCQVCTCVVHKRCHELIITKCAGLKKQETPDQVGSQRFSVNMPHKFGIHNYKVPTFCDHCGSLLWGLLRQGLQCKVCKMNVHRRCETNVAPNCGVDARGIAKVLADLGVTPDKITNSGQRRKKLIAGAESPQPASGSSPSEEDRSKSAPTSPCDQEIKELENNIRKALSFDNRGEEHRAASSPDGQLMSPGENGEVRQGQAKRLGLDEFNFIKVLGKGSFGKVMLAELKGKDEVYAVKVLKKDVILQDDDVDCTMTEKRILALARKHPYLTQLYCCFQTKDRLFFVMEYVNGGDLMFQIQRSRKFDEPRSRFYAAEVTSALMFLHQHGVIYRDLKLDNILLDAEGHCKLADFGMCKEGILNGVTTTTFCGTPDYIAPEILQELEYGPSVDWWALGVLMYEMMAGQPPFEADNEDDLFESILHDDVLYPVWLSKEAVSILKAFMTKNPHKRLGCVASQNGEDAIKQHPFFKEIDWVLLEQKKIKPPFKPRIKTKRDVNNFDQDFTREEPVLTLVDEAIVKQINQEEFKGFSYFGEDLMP
Please interpret these as log10 of IC50 where IC50 is in nM.

Report log10 of IC50 for every entry below.
1. CN1CCN(c2ncc(Nc3ncc(F)c(NC4CC(C)(C)N(C)C(C)(C)C4)n3)cc2C(F)(F)F)CC1
2. CCN1CCN(c2ccc(Nc3ncc(F)c(NC4CC(C)(C)N(C)C(C)(C)C4)n3)cc2C(F)(F)F)CC1
3. Cc1nnnn1-c1cccc(Nc2ncc(C#N)c(NC3CC(C)(C)NC(C)(C)C3)n2)c1
4. Cc1ccc(Nc2ncc(F)c(NC3CC(C)(C)N(C)C(C)(C)C3)n2)cc1-c1ccoc1
5. COc1cc(Nc2ncc(F)c(NC3CC(C)(C)N(C)C(C)(C)C3)n2)cc(OC)c1
6. COc1cc(Nc2ncc(Br)c(NC3CC(C)(C)N(C)C(C)(C)C3)n2)cc(OC)c1

Output:
1. 0.69
2. 1.00
3. 2.10
4. 1.56
5. 1.43
6. 2.22

Report log10 of IC50 for every entry below.
1. CN1C(C)(C)CC(Nc2nc(Nc3cccc(-c4nn[nH]n4)c3)ncc2F)CC1(C)C
2. CN1CCN(c2ccc(Nc3ncc(C(F)(F)F)c(NC4CC(C)(C)N(C)C(C)(C)C4)n3)cc2C(F)(F)F)CC1
3. CSc1nnnn1-c1cccc(Nc2ncc(F)c(NC3CC(C)(C)NC(C)(C)C3)n2)c1
4. CCN1C(=O)C(C)(C)Oc2cc(Nc3ncc(C#N)c(NC4CC(C)(C)N(C)C(C)(C)C4)n3)ccc21
5. CN1C(=O)C(F)(F)Oc2cc(Nc3ncc(F)c(NC4CC(C)(C)N(C)C(C)(C)C4)n3)ccc21

Output:
1: 2.97; 2: 2.70; 3: 1.11; 4: 2.25; 5: 1.76
